Below: a set of entries, each annotated with reported apparent KD of MS2 coat protein.
# Test system: MS2 coat protein
# procedureDetails: apparent KD of MS2 coat protein; designed switch direction (-1 OFF switch, 1 ON switch): -1; higher = weaker reporter binding
# runParameters: Eterna round: R95; input ligand: none
Form entry: value (nM) — number only.

Below, 5 sequences whose answers are already recorded.
# sequenceText, testedTarget, valueKind, reportedResult
records = [
    ("ACGUAACGAGCUUGAUCCAACAUGAGGAUCACCCAUGUGCUCGUCUUAUAACGUACUGUCACGUUAGUGAUAGUGCG [Sensor v3, turn-off variant 1 (MOD of Eli's v1-13 v.5)] (puzzle: Sensor v3, turn-off variant 1)", "MS2 coat protein", "apparent KD of MS2 coat protein", 1190),
    ("GGUUGGCGAGGAUAUACAUGAGGAUCACCCAUGUGAGAGAAAAAAGUGAGGAAGAAACGUAGAAGGCGCUGACG [salish99_ex3_r3_037] (puzzle: Exclusion 3)", "MS2 coat protein", "apparent KD of MS2 coat protein", 45.2),
    ("CUCUUGUCAGGAUAUCUAAGCCACCUCCGGGCGGCCGAAUUAGAGAAGGGACAUGAGGAUCACCCAUGUAAAAG [Qumabi] (puzzle: Exclusion 4)", "MS2 coat protein", "apparent KD of MS2 coat protein", 174),
    ("AUGAGACAUGAGGAUCACCCAUGUGAGGAUAUGUAUGGAUGUUGGAAAGAAUGAGAGAACAGAAGGCACGUAGA [JR_Exclu1_Sub063] (puzzle: Exclusion 1)", "MS2 coat protein", "apparent KD of MS2 coat protein", 149),
    ("AUUGAUAUUGAGGAUAUGCUUUUAUUUGAACAAGCAGAAGGCGAUACAUGAGGAUCACCCAUGUUUAUGGAAGU [JR_E6_Sub087] (puzzle: Exclusion 6)", "MS2 coat protein", "apparent KD of MS2 coat protein", 49.4),
]

Return reported apparent KD of MS2 coat protein; argument: AGGUAACAUGAGGAUCACCCAUGUCAGGAUAUCAGUAAGAUGAGGAUAGAAUAGAGUAUGAGAAGGGACUAUAU [Excluse me! 22 - Jieux - Exclusion 1] (puzzle: Exclusion 1)
47.6

Entry under review: AAGAAACAUGAGGAUCACCCAUGUGAGGAUAUGUAAAAUAAAAGAAAAGAAAGAAGAAACAGAAGGCACAAAGG [Mat - Mod of Hog D13] (puzzle: Exclusion 1) . Reported apparent KD of MS2 coat protein?
47.5

Any idea what its apparent KD of MS2 coat protein is? The sequence is GAGAAGGUAGGAUAUACGAAGAAAGAGGGUAGGAAUAAGACACAUGAGGAUCACCCAUGUAGAAGGACCAAGAG [Mat - Exclusion 2 - Mod of my Tesla design - D49] (puzzle: Exclusion 2)
22.9

Any idea what apparent KD of MS2 coat protein was measured for ACGUGAUAUCUGUCGGUGGACAUGAGGAUCACCCAUGUAAGCUUCUUGCUCGUCUUAUAACCCGGUGACAGACCUUC [Zalaso] (puzzle: Sensor v3, turn-off variant 1) ?
47

Would you mind telling me what apparent KD of MS2 coat protein value was observed for CGUACUAACACGAAAGUGUUAGUACAAUAAGCUUGUGAAACAUGAGGAUCACCCAUGUCCUCAUAAGCUCGUCUUAU [salish99_TOv2_r3_007] (puzzle: Sensor v3, turn-off variant 2) ?
15.7
